run-description: in vitro
experimental-conditions: ICR, mouse, plasma
Description: Protein binding in ICR mouse plasma at 2 uM after 6 hrs by LC-MS/MS analysis
Let's look at some compounds and their measured fraction unbound at 6 h, 2 µM.
Note: the reply should be a number with no unit written.

cpd_smiles=CNc1nc(C)c2cc(-c3cnc(OC)c(NS(=O)(=O)c4ccc(F)cc4F)c3)cc(OC3CCOCC3)c2n1 measure="fraction unbound at 6 h, 2 µM" result=0.0842

The reported value for "COc1ncc(-c2cc(OC3CCOCC3)c3nc(N)nc(C)c3c2)cc1NS(=O)(=O)c1ccc(F)cc1F" in terms of fraction unbound at 6 h, 2 µM is 0.0823

----------
run-description: in vivo
experimental-conditions: ICR, mouse, brain, po, 30 mg/kg
measure: Cmax (ng/g)
Value expressed in ng/g; do not type the unit.

cpd_smiles=CNc1nc(C)c2cc(-c3cnc(OC)c(NS(=O)(=O)c4ccc(F)cc4F)c3)cc(OC3CCOCC3)c2n1 measure=Cmax u=ng/g result=723

Could you now consider this next molecule?
Just so you know, measured Cmax for "CNc1nc(C)c2cc(-c3cnc(OC)c(NS(=O)(=O)c4ccc(F)cc4F)c3)cc(O[C@@H]3CCOC3)c2n1" came out at 433

----------
run-description: in vivo
experimental-conditions: ICR, mouse, in vivo, po, 30 mg/kg
measure: Tmax
The reply should read as a number followed by its unit.

So, "COc1ncc(-c2cc(OC3CCOCC3)c3nc(N)nc(C)c3c2)cc1NS(=O)(=O)c1ccc(F)cc1F" ? Its Tmax was 30 min

----------
run-description: in vivo
experimental-conditions: ICR, mouse, po
Description: Toxicity in po dosed ICR mouse administered as single dose via oral gavage measured after 14 days
// reported MTD at 336 h per item

Below: 3 compounds and their reported MTD at 336 h.
cpd_smiles=CNc1nc(C)c2cc(-c3cnc(OC)c(NS(=O)(=O)c4ccc(F)cc4F)c3)cc(OC3CCOCC3)c2n1 result="> 40 mg/kg"
cpd_smiles=CNc1nc(C)c2cc(-c3cnc(OC)c(NS(=O)(=O)c4ccc(F)cc4F)c3)cc(O[C@@H]3CCOC3)c2n1 result="> 40 mg/kg"
cpd_smiles=COc1ncc(-c2cc(O[C@@H]3CCOC3)c3nc(N)nc(C)c3c2)cc1NS(=O)(=O)c1ccc(F)cc1F result="> 50 mg/kg"

Consider "COc1ncc(-c2cc(OC3CCOCC3)c3nc(N)nc(C)c3c2)cc1NS(=O)(=O)c1ccc(F)cc1F" . Its measured MTD at 336 h is > 40 mg/kg

----------
target-system: Phosphatidylinositol 4,5-bisphosphate 3-kinase catalytic subunit delta isoform (Homo sapiens)
Sequence (O00329 whole entry, canonical isoform): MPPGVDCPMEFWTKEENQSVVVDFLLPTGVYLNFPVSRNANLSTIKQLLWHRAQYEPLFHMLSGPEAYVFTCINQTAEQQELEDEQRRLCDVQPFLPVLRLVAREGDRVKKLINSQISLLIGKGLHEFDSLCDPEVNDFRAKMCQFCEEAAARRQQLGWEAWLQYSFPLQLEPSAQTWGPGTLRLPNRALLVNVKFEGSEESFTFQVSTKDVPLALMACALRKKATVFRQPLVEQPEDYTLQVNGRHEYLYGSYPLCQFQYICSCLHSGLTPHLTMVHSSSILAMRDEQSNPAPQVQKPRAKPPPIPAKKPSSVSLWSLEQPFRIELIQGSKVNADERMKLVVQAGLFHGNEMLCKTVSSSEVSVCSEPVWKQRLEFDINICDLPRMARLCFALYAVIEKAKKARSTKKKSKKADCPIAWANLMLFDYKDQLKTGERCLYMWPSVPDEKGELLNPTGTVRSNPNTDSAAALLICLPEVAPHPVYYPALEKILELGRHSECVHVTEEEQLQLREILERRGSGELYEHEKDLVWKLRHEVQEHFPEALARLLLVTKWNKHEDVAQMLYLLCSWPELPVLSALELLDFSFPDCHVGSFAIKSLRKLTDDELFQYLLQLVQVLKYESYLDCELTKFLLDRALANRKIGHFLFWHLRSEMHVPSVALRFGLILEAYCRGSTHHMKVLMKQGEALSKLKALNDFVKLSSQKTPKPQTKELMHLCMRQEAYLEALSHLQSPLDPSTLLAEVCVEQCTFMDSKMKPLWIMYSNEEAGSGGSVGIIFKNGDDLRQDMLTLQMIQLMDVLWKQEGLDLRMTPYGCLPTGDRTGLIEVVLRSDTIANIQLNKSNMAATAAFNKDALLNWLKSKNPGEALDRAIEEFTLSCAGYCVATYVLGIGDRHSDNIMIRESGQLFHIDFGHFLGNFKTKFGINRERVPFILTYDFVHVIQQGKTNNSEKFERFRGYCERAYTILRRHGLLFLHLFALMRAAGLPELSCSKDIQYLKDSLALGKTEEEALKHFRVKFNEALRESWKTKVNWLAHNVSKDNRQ
run-description: Inhibition of PI3Kdelta (unknown origin) using PIP2 as substrate by ADP-Glo assay
measure: IC50

Look over these answered cases.
cpd_smiles=COc1ncc(-c2cc(O[C@@H]3CCOC3)c3nc(N)nc(C)c3c2)cc1NS(=O)(=O)c1ccc(F)cc1F result="0.23 nM"
cpd_smiles=COc1ncc(-c2cc(OC3CCOCC3)c3nc(N)nc(C)c3c2)cc1NS(=O)(=O)c1ccc(F)cc1F result="0.18 nM"

Entry "CNc1nc(C)c2cc(-c3cnc(OC)c(NS(=O)(=O)c4ccc(F)cc4F)c3)cc(OC3CCOCC3)c2n1" — recorded IC50 = 0.35 nM

Looking up "CNc1nc(C)c2cc(-c3cnc(OC)c(NS(=O)(=O)c4ccc(F)cc4F)c3)cc(O[C@@H]3CCOC3)c2n1" , I found its IC50 recorded as 0.37 nM

----------
# AUC(0-inf) listing for each entry below
run-description: in vivo
experimental-conditions: ICR, mouse, plasma, po, 30 mg/kg
Please reply with the bare figure in ng·h/mL and do not write the unit itself.

cpd_smiles=CNc1nc(C)c2cc(-c3cnc(OC)c(NS(=O)(=O)c4ccc(F)cc4F)c3)cc(O[C@@H]3CCOC3)c2n1 result=17100
cpd_smiles=COc1ncc(-c2cc(O[C@@H]3CCOC3)c3nc(N)nc(C)c3c2)cc1NS(=O)(=O)c1ccc(F)cc1F result=9040

Kindly note the recorded AUC(0-inf) for "CNc1nc(C)c2cc(-c3cnc(OC)c(NS(=O)(=O)c4ccc(F)cc4F)c3)cc(OC3CCOCC3)c2n1" , which is 16100

----------
Recorded IC50, one value per entry.
target-system: Phosphatidylinositol 4,5-bisphosphate 3-kinase catalytic subunit gamma isoform (Homo sapiens)
Sequence (P48736 whole entry, canonical isoform): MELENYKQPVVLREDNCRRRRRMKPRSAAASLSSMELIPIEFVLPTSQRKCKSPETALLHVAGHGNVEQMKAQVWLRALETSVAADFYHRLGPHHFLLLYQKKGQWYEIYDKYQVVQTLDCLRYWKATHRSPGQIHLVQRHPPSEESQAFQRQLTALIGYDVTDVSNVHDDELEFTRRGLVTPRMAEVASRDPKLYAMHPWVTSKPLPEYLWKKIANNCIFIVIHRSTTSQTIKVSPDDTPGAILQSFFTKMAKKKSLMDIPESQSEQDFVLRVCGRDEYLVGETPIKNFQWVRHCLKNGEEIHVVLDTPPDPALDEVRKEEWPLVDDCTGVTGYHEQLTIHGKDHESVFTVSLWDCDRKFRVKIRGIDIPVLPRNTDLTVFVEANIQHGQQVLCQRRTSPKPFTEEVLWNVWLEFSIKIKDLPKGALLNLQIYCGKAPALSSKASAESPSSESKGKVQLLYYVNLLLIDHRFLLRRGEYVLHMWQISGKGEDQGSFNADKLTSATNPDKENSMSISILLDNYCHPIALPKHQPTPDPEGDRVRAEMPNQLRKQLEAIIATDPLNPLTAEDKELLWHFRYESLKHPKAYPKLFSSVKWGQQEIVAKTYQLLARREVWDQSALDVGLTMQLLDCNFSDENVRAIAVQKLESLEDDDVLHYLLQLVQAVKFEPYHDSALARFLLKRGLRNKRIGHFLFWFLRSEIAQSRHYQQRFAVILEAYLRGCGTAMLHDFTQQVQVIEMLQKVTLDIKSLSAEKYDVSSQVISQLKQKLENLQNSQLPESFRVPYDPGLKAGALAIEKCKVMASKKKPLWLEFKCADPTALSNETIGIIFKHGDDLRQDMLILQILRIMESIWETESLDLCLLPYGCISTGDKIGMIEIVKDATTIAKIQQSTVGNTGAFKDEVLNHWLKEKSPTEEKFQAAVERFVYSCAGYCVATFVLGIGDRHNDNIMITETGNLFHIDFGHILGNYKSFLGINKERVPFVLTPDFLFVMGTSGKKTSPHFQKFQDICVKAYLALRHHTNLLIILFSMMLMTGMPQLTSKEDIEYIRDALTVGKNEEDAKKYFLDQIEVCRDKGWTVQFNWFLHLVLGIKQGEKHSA
run-description: Inhibition of PI3Kgamma (unknown origin) using PIP2 as substrate by ADP-Glo assay
Respond with the bare value in nM.

Examples from the recorded data:
cpd_smiles=COc1ncc(-c2cc(O[C@@H]3CCOC3)c3nc(N)nc(C)c3c2)cc1NS(=O)(=O)c1ccc(F)cc1F measure=IC50 result=1.2
cpd_smiles=CNc1nc(C)c2cc(-c3cnc(OC)c(NS(=O)(=O)c4ccc(F)cc4F)c3)cc(OC3CCOCC3)c2n1 measure=IC50 result=1.7
cpd_smiles=CNc1nc(C)c2cc(-c3cnc(OC)c(NS(=O)(=O)c4ccc(F)cc4F)c3)cc(O[C@@H]3CCOC3)c2n1 measure=IC50 result=0.93

Consider the record given below.
Entry "COc1ncc(-c2cc(OC3CCOCC3)c3nc(N)nc(C)c3c2)cc1NS(=O)(=O)c1ccc(F)cc1F" — recorded IC50 = 1.3

----------
These records show IC50 for Voltage-gated inwardly rectifying potassium channel KCNH2 (Homo sapiens, UniProt Q12809).

Please review the entries below; each comes with its answer.
cpd_smiles=COc1ncc(-c2cc(O[C@@H]3CCOC3)c3nc(N)nc(C)c3c2)cc1NS(=O)(=O)c1ccc(F)cc1F result="> 10 µM"
cpd_smiles=CNc1nc(C)c2cc(-c3cnc(OC)c(NS(=O)(=O)c4ccc(F)cc4F)c3)cc(OC3CCOCC3)c2n1 result="> 10 µM"

Next molecule, please.
Record "CNc1nc(C)c2cc(-c3cnc(OC)c(NS(=O)(=O)c4ccc(F)cc4F)c3)cc(O[C@@H]3CCOC3)c2n1" / Voltage-gated inwardly rectifying potassium channel KCNH2 (Homo sapiens, UniProt Q12809), IC50 recorded as > 10 µM

----------
run-description: in vivo
experimental-conditions: ICR, mouse, plasma, po, 30 mg/kg
Known Tmax of a selection of compounds

cpd_smiles=COc1ncc(-c2cc(O[C@@H]3CCOC3)c3nc(N)nc(C)c3c2)cc1NS(=O)(=O)c1ccc(F)cc1F result="4.8 min"

compound "CNc1nc(C)c2cc(-c3cnc(OC)c(NS(=O)(=O)c4ccc(F)cc4F)c3)cc(O[C@@H]3CCOC3)c2n1" , Tmax observed: 15 min

Tmax measured on "CNc1nc(C)c2cc(-c3cnc(OC)c(NS(=O)(=O)c4ccc(F)cc4F)c3)cc(OC3CCOCC3)c2n1" = 10.8 min

----------
Listed below: IC50 values for each entry.
target-system: Serine/threonine-protein kinase mTOR (Homo sapiens)
Hi! Could you send only the number? It should be in µM, unit omitted.

Here are 3 compounds together with their reported answers.
cpd_smiles=CNc1nc(C)c2cc(-c3cnc(OC)c(NS(=O)(=O)c4ccc(F)cc4F)c3)cc(OC3CCOCC3)c2n1 result=0.043
cpd_smiles=CNc1nc(C)c2cc(-c3cnc(OC)c(NS(=O)(=O)c4ccc(F)cc4F)c3)cc(O[C@@H]3CCOC3)c2n1 result=0.056
cpd_smiles=COc1ncc(-c2cc(O[C@@H]3CCOC3)c3nc(N)nc(C)c3c2)cc1NS(=O)(=O)c1ccc(F)cc1F result=0.0099

IC50 reading for "COc1ncc(-c2cc(OC3CCOCC3)c3nc(N)nc(C)c3c2)cc1NS(=O)(=O)c1ccc(F)cc1F" : 0.0079

----------
run-description: in vitro
experimental-conditions: human, plasma
Description: Protein binding in human plasma at 2 uM after 6 hrs by LC-MS/MS analysis
measure: fraction unbound at 6 h, 2 µM

cpd_smiles=COc1ncc(-c2cc(OC3CCOCC3)c3nc(N)nc(C)c3c2)cc1NS(=O)(=O)c1ccc(F)cc1F result=0.0422

In the following, a different compound is considered.
According to the records, this compound "CNc1nc(C)c2cc(-c3cnc(OC)c(NS(=O)(=O)c4ccc(F)cc4F)c3)cc(OC3CCOCC3)c2n1" displays fraction unbound at 6 h, 2 µM of 0.0454

----------
target-system: Phosphatidylinositol 4,5-bisphosphate 3-kinase catalytic subunit alpha isoform (Homo sapiens)
Sequence (P42336 whole entry, canonical isoform): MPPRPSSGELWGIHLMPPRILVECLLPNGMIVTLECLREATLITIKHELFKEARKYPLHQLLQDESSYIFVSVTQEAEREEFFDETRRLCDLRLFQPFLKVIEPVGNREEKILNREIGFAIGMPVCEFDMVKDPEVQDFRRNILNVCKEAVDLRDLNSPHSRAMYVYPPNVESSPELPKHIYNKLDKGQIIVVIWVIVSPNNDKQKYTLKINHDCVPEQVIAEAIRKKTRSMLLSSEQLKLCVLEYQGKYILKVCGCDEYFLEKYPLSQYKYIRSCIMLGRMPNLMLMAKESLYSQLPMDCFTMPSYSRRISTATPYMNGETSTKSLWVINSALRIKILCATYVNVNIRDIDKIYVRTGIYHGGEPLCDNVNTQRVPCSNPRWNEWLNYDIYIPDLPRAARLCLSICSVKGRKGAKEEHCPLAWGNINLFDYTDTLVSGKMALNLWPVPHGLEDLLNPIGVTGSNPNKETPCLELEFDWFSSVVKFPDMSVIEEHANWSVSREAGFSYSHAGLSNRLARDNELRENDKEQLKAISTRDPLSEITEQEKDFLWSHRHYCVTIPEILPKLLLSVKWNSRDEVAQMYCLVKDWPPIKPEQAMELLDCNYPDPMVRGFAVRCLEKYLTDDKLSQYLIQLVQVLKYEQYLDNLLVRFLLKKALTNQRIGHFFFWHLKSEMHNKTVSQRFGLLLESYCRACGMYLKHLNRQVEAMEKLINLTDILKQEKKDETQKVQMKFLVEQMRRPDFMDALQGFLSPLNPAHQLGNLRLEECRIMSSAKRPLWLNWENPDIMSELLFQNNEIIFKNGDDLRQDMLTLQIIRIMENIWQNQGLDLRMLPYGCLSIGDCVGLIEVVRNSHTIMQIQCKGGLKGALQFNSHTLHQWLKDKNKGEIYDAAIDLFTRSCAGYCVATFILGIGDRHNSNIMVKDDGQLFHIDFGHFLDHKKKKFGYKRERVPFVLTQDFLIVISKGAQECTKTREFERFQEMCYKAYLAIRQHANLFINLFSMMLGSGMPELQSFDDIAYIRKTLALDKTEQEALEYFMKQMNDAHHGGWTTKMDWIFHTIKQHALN
run-description: Inhibition of PI3Kalpha (unknown origin) using PIP2 as substrate by Kinase-Glo assay
This section presents compounds with their documented pIC50 values.
Schema: pIC50 number; meaning minus log10 of the concentration expressed in molar units.

// COc1ncc(-c2cc(OCC3CCCO3)c3nc(N)nc(C)c3c2)cc1NS(=O)(=O)c1ccc(F)cc1F (stereo not drawn) : pIC50 value = 8.96

// sample "CCNc1nc(C)c2cc(-c3cnc(OC)c(NS(=O)(=O)c4ccc(F)cc4F)c3)cc(OC3CCOCC3)c2n1" , its pIC50 was 8.82

The compound listed as "COc1ncc(-c2cc(OC3CCOCC3)c3nc(N)nc(C)c3c2)cc1NS(=O)(=O)c1ccc(F)cc1Cl" has a reported pIC50 of 8.96

----------
# pIC50 per entry
System: MDA-MB-231
run-description: cells
Type: functional, cell-based
experimental-conditions: Homo sapiens, MDA-MB-231, 96 h
Description: Cytotoxicity against human MDA-MB-231 cells after 96 hrs by MTT assay
As a rule, pIC50 stands for the negative log10 of the concentration, concentration in M.

cpd_smiles=COc1ncc(-c2cc(O[C@@H]3CCOC3)c3nc(N)nc(C)c3c2)cc1NS(=O)(=O)c1ccc(F)cc1F target_system=MDA-MB-231 result=6.52
cpd_smiles=CNc1nc(C)c2cc(-c3cnc(OC)c(NS(=O)(=O)c4ccc(F)cc4F)c3)cc(O[C@@H]3CCOC3)c2n1 target_system=MDA-MB-231 result=6.32
cpd_smiles=COc1ncc(-c2cc(OC3CCOCC3)c3nc(N)nc(C)c3c2)cc1NS(=O)(=O)c1ccc(F)cc1F target_system=MDA-MB-231 result=6.74

Entry "CNc1nc(C)c2cc(-c3cnc(OC)c(NS(=O)(=O)c4ccc(F)cc4F)c3)cc(OC3CCOCC3)c2n1" , MDA-MB-231 data, pIC50 value: 6.59

Where do the numbers come from? From ChEMBL document CHEMBL4145625.
